Recorded fraction of fluorescent probe displaced for the following molecules
Molecular target: MDM2 (Homo sapiens, UniProt Q00987)
Sequence (Q00987 whole entry): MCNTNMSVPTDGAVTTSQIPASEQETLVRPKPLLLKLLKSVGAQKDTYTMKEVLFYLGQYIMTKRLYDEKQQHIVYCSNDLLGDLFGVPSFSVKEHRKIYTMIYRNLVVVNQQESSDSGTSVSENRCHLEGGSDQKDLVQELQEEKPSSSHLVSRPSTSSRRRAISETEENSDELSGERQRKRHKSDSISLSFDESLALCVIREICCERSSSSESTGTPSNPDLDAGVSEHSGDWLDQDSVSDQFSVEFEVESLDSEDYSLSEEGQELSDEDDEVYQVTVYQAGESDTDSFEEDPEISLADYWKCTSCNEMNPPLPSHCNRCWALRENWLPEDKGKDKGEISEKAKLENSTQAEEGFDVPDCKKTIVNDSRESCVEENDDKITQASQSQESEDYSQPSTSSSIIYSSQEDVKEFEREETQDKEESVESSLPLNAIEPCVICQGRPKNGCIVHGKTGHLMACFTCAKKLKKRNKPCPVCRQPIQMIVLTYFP
Experiment: MDM2 binding screen of Libraries 3 and 4: displacement of fluorescent probe F-M8 at 750 nM macrocycle
Details: Panel b, Library 3: 63 scaffolds combinatorially acylated with 15 carboxylic acids at 30 picomole scale; displacement of fluorescent peptide probe; macrocycle 750 nM
Measurement kind: fraction of fluorescent probe displaced

Molecule	Measurement kind	Recorded value
Cn1cc(C[C@@H]2NC(=O)[C@@H](CNC(=O)/C=C/c3ccc4ccccc4c3)NC(=O)[C@H]3CCCN(C3)C(=O)CCSSCCNC2=O)c2ccccc21 [X-Nip-D-Dap-Me-Trp + Acid 112]	fraction of fluorescent probe displaced	0.021
CC(Oc1cccc(Cl)c1)C(=O)NCCN1CC(=O)N[C@@H](Cc2cccc3ccccc23)C(=O)NCCSSCCC(=O)N2CCO[C@@H](C2)C1=O (some centres unmarked) [X-Cop-N-Aeg-1-NaI + Acid 113]	fraction of fluorescent probe displaced	0.008
CC(Oc1cccc(Cl)c1)C(=O)NC[C@@H]1NC(=O)[C@H]2CCCN(C2)C(=O)CCSSCCNC(=O)[C@@H](Cc2c[nH]c3ccccc23)NC1=O (stereo partly drawn) [X-Nip-Dap-D-Trp + Acid 113]	fraction of fluorescent probe displaced	-0.00533
O=C(/C=C/c1ccncc1)NC[C@@H]1NC(=O)C2(CC2)CNC(=O)CCSSCCNC(=O)[C@H](Cc2ccc3ccccc3c2)NC1=O [X-Amcp-Dap-2-Nal + Acid 106]	fraction of fluorescent probe displaced	-0.002
Cn1cc(C[C@@H]2NC(=O)CN(CCNC(=O)c3cccc(Oc4ccccc4)c3)C(=O)C3(CC3)CNC(=O)CCSSCCNC2=O)c2ccccc21 [X-Amcp-N-Aeg-Me-Trp + Acid 111]	fraction of fluorescent probe displaced	0.015
